Reference source for all entries: paper PMC5540273

What %Inh was measured for each of the following?
Test system: PIK3CD
TEST SETTINGS: concentration: 1 μM, replicates: in singlicate; n = 1;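 note: KINOMEscan kinase panel screen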
Numbers only, in %.

1. O=C(Nc1cccc(-c2nn3ncccc3c2-c2ccnc(Nc3cccc(C(F)(F)F)c3)n2)c1)c1c(F)cccc1F :: 25
2. COc1ccc(Nc2nccc(N3CCC(NC(=O)Nc4cc(C)ccc4C)C3)n2)cc1 (stereo not shown) :: 0
3. CN1c2ccc(CNc3ccc(F)cc3)cc2-c2c(cnn2C)S1(=O)=O :: 0

Please examine the following record next.
INPUT: Tell me the measured %Inh of COc1cc(Nc2nccc(N3CCC(NC(=O)c4cccc(NC(C)=O)c4)C3)n2)cc(OC)c1OC (stereo not shown) , please.
OUTPUT: 0

----------
What %Inh was measured for each of the following?
Test system: QSK
TEST SETTINGS: concentration: 1 μM, replicates: in singlicate; n = 1

1) O=C(c1ccc(-c2cc(-c3c[nH]nc3-c3ccccn3)ccn2)cc1)N1CCOCC1 :: 0%
2) Cc1c2ccc(N(C)c3ccnc(Nc4cccc(S(N)(=O)=O)c4)n3)cc2nn1Cc1ccccc1.Cl.Cl :: 0%

State the recorded %Inh for every item in the following list.
1. CCc1nc(-c2cccc(C)c2)c(-c2ccnc(NCc3ccccc3)c2)s1
2. CN1c2ccc(NCc3ccc(F)cc3)cc2-c2c(cnn2C)S1(=O)=O
3. COCCNC(=O)c1ccc(-c2cc(C(=O)NC3CC3)cc(F)c2C)cc1
4. O=C1Cc2cc(Nc3nc(NCc4cccc(S(=O)(=O)C(F)(F)F)c4)ncc3C(F)(F)F)ccc2N1
5. NS(=O)(=O)c1cccc(-c2ccc3nccc(-c4cccc(S(N)(=O)=O)c4)c3c2)c1
6. CN(C(=O)c1ccc(-c2cc(-c3c[nH]nc3-c3ccccn3)ccn2)cc1)C1CCOCC1

OUTPUT:
1: 0%; 2: 10%; 3: 26%; 4: 0%; 5: 13%; 6: 0%

State the recorded %Inh for every item in the following list.
1. COc1ccc(Nc2nccc(N3CCC(NC(=O)Nc4cccc(C(C)=O)c4)C3)n2)cc1 (stereo not drawn)
2. CC(C)Oc1ccc2c(-c3ccnc(Nc4ccc(N5CCN(C)CC5)cc4)n3)cnn2n1
3. COc1cc2c(cc1OCCN1CCN(C)CC1)ncc1c3ccc(C#N)cc3[nH]c21
4. Cl.Oc1cccc(Nc2ccnc3cc(-c4ccncc4)ccc23)c1
5. COc1ccc(COc2cc(-n3cnc4ccccc43)sc2C(N)=O)cc1

OUTPUT:
1. 0%
2. 23%
3. 67%
4. 63%
5. 0%

State the recorded %Inh for every item in the following list.
1. CC(C)(C)n1cnc2c(N)ncnc21
2. Cl.Nc1ncnc2occ(-c3ccc(NC(=O)Nc4cc(C(F)(F)F)ccc4F)cc3)c12
3. Cc1ccc(NC(=O)c2ccnc(N3CCN(C)CC3)c2)cc1-c1ccc(C(=O)NCC2CC2)cc1

OUTPUT:
0%
0%
0%

State the recorded %Inh for every item in the following list.
1. Fc1ccc(-c2ncn(CCCN3CCOCC3)c2-c2ccccn2)cc1
2. Cc1cccc(-c2nc(Nc3ccc4ncsc4c3)c3ccccc3n2)n1

OUTPUT:
0%
11%

----------
Tested on: BMPR1B
TEST SETTINGS: concentration: 1 μM, replicates: in singlicate; n = 1
MEASURED ENDPOINT: %Inh

Observe how each entry below is paired with its result.
1. COc1ccc(S(=O)(=O)NC2CCN(c3cc(C)nc(Nc4cccc(C#N)c4)n3)CC2)cc1.O=C(O)C(F)(F)F :: 0%
2. CC(C)(CN)c1nc(-c2ccc(Cl)c(O)c2)c(-c2ccncc2)[nH]1.O=C(O)C(F)(F)F :: 99.9%
3. COc1cc(Nc2nccc(N3CCC(NC(=O)c4cccc(NC(C)=O)c4)C3)n2)cc(OC)c1OC (centres unmarked) :: 0%
4. Cl.Oc1cccc(Nc2ccnc3cc(-c4ccncc4)ccc23)c1 :: 99.9%
5. O=C(NCCNc1ccnc(Nc2ccc(F)cc2)n1)Nc1ccccc1F :: 0%

State the recorded %Inh for every item in the following list.
1. Cc1cccc(Cn2ccn3c(=O)cc(N4CCOCC4)nc23)c1
2. Cc1c2ccc(N(C)c3ccnc(Nc4cccc(S(N)(=O)=O)c4)n3)cc2nn1Cc1ccccc1.Cl.Cl

OUTPUT:
1. 0%
2. 0%

INPUT: Tell me the measured %Inh of `Fc1ccc(-c2ncn(CCCN3CCOCC3)c2-c2ccccn2)cc1` , please.
OUTPUT: 0%

----------
Test system: HIPK1
TEST SETTINGS: concentration: 1 μM, replicates: in singlicate; n = 1
MEASURED ENDPOINT: %Inh (%)
Numbers only, in %.

1. CN1c2ccc(NCc3ccc(F)cc3)cc2-c2c(cnn2C)S1(=O)=O :: 6
2. [2H]C([2H])(c1cccc(C(F)(F)F)c1C)n1ccn2c(=O)nc(N3CCOCC3)cc12 :: 0

State the recorded %Inh for every item in the following list.
1. CC(C)(C)n1cnc2c(N)ncnc21
2. N#Cc1ccc(-c2cc(-c3c[nH]nc3-c3ccccn3)ccn2)cc1
3. CC(C)(CN)c1nc(-c2ccc(Cl)c(O)c2)c(-c2ccncc2)[nH]1.O=C(O)C(F)(F)F
4. Cn1cc(-c2ccc3c(c2)CCN3C(=O)Cc2ccccc2Cl)c2c(N)ncnc21
5. C[C@@H](Oc1cc(-n2cnc3ccc(NC(=O)NC(C)(C)C)cc32)sc1C(N)=O)c1ccccc1Cl
6. COc1cc2ncn(-c3cc(OCc4sccc4Cl)c(C(N)=O)s3)c2cc1OC
7. N#Cc1c(N2CCOCC2)sc(-c2ccn[nH]2)c1-c1ccc(Cl)cc1

OUTPUT:
[13, 0, 0, 0, 9, 44, 26]

----------
Tested on: KIT
TEST SETTINGS: concentration: 1 μM, replicates: in singlicate; n = 1
Note to self: use T only for %Inh readings below 30%; a reading exactly at 30% still gets F.

The examples below pair each entry with its known result.
1. Fc1ccc(-c2ncn(CCCN3CCOCC3)c2-c2ccccn2)cc1 :: T
2. Cc1c2ccc(N(C)c3ccnc(Nc4cccc(S(N)(=O)=O)c4)n3)cc2nn1Cc1ccccc1.Cl.Cl :: F

INPUT: Report whether reported %Inh is lower than 30% (strictly) for `Cn1cc(-c2ccc3c(c2)CCN3C(=O)Cc2ccccc2Cl)c2c(N)ncnc21`
OUTPUT: F

INPUT: `CC(=O)Nc1ccc(COc2ccc(Nc3ccnc4cc(-c5ccccn5)ccc34)cc2)cc1.Cl` , same question.
OUTPUT: F

INPUT: `c1ccc(-c2cc(-c3c[nH]nc3-c3ccccn3)ccn2)cc1` , same question.
OUTPUT: T

INPUT: `Nc1nccc(-c2c(-c3ccc(F)cc3)ncn2C2CCN(CC(F)(F)F)CC2)n1` , same question.
OUTPUT: T

INPUT: `Cc1cccc(Cn2ccn3c(=O)cc(N4CCOCC4)nc23)c1` , same question.
OUTPUT: F

INPUT: `Fc1ccc(-c2ncn(CCCN3CCOCC3)c2-c2cccnc2)cc1` , same question.
OUTPUT: T

INPUT: `CN1c2ccc(CNc3ccc(F)cc3)cc2-c2c(cnn2C)S1(=O)=O` , same question.
OUTPUT: T

INPUT: `O=C(c1ccc(-c2cc(-c3c[nH]nc3-c3ccccn3)ccn2)cc1)N1CCOCC1` , same question.
OUTPUT: T

INPUT: NCC(NC(=O)c1cc(-c2cn[nH]c2)c(-c2ccnc3[nH]ccc23)s1)c1ccccc1.O=C(O)C(F)(F)F.O=C(O)C(F)(F)F (stereo not drawn) , same question.
OUTPUT: T

INPUT: `COc1cc2ncn(-c3cc(OCc4sccc4Cl)c(C(N)=O)s3)c2cc1OC` , same question.
OUTPUT: F

INPUT: COc1ccc(Nc2nccc(N3CCC(NC(=O)Nc4cccc(C(C)=O)c4)C3)n2)cc1 (stereo not drawn) , same question.
OUTPUT: F

----------
Test system: CLK4
TEST SETTINGS: concentration: 1 μM, replicates: in singlicate; n = 1
MEASURED ENDPOINT: %Inh (%)
One number for each entry, in %.

Observe how each entry below is paired with its result.
1) Cc1cccc(-c2nc(Nc3ccc4ncsc4c3)c3ccccc3n2)n1 :: 0
2) Fc1ccc(-c2ncn(CCCN3CCOCC3)c2-c2cccnc2)cc1 :: 2

State the recorded %Inh for every item in the following list.
1. CC(=O)Nc1ccc(COc2ccc(Nc3ccnc4cc(-c5ccccn5)ccc34)cc2)cc1.Cl
2. CN1c2ccc(NCc3ccc(F)cc3)cc2-c2c(cnn2C)S1(=O)=O
3. COc1ccc(Nc2nccc(N3CCC(NC(=O)Nc4cc(C)ccc4C)C3)n2)cc1 (stereo not shown)
4. CN(C(=O)c1ccc(-c2cc(-c3c[nH]nc3-c3ccccn3)ccn2)cc1)C1CCOCC1

OUTPUT:
1: 0; 2: 0; 3: 0; 4: 0

----------
System: p38-delta
TEST SETTINGS: concentration: 1 μM, replicates: in singlicate; n = 1
What %Inh was measured for each of the following?
Write the quantity with the unit trailing the number.

Observe how each entry below is paired with its result.
1. Cc1nnc(-c2ccc3ncc(-c4ccc(S(C)=O)cc4)n3c2)o1 (stereo not drawn) :: 7%
2. COc1ccc(Nc2nccc(N3CCC(NC(=O)Nc4cc(C)ccc4C)C3)n2)cc1 (stereo not drawn) [GSK1379741] :: 47%
3. CN(C(=O)c1ccc(-c2cc(-c3c[nH]nc3-c3ccccn3)ccn2)cc1)C1CCOCC1 [GW810083] :: 5%

State the recorded %Inh for every item in the following list.
1. NS(=O)(=O)c1cccc(-c2ccc3nccc(-c4cccc(S(N)(=O)=O)c4)c3c2)c1 [GW867253]
2. O=C1NC(=O)C(N2CCc3ccccc32)=C1c1cccc(Cl)c1 [SB-408010]
3. O=C(NOCC1CC1)c1ccc(F)c(F)c1Nc1ccc(I)cc1Cl
4. CCCCCc1nc2c(N)ncnc2n1CCCCC [SKF-97255]

OUTPUT:
0%
15%
0%
0%

State the recorded %Inh for every item in the following list.
1. CCn1cnc2c(N)ncnc21 [GW345098]
2. Cn1cc(-c2ccc3c(c2)CCN3C(=O)Cc2ccccc2Cl)c2c(N)ncnc21 [GSK2608885]
3. COc1cc(Nc2nccc(N3CCC(NC(=O)c4cccc(NC(C)=O)c4)C3)n2)cc(OC)c1OC (stereo not drawn) [GSK1379754]
4. CC(C)(C)n1cnc2c(N)ncnc21 [SKF-97359]
5. NS(=O)(=O)CCc1cccc(Nc2nccc(-c3c(-c4cccc(NC(=O)c5c(F)cccc5F)c4)nn4ccccc34)n2)c1 [GSK336735]
6. COc1ccc(Nc2ncc(C#N)c(Nc3ccccc3C(N)=O)n2)cc1N1CCN(C)CC1.Cl [GSK1558669]
7. Cc1c2ccc(N(C)c3ccnc(Nc4cccc(S(N)(=O)=O)c4)n3)cc2nn1Cc1ccccc1.Cl.Cl [GW787226]
8. CCc1nc(-c2cccc(C)c2)c(-c2ccnc(NCc3ccccc3)c2)s1

OUTPUT:
1: 0%; 2: 26%; 3: 0%; 4: 0%; 5: 54%; 6: 0%; 7: 0%; 8: 0%

State the recorded %Inh for every item in the following list.
1. CC(C)Oc1ccc2c(-c3ccnc(Nc4ccc(N5CCN(C)CC5)cc4)n3)cnn2n1 [GW696155]
2. NS(=O)(=O)c1cccc(-c2ccc3ncc(N4CCOCC4)nc3c2)c1 [GSK1535721]
3. O=C1Cc2cc(Nc3nc(NCc4cccc(S(=O)(=O)C(F)(F)F)c4)ncc3C(F)(F)F)ccc2N1

OUTPUT:
1. 72%
2. 21%
3. 15%
